- System: Fibroblast
- measurement-notes: Multiplex assay against human fibroblast
- Assay type: toxicity, cell-based
- protocol-conditions: 24 h, 10 µM, compound concentration 10 uM, replicate 1
measured-endpoint: Total Cell Count

>>> test_result("CCCCC1=NC2(CCCC2)C(=O)N1Cc1ccc(-c2ccccc2-c2nnn[nH]2)cc1")
155
>>> test_result("CCCCC(=O)N(Cc1ccc(-c2ccccc2-c2nnn[nH]2)cc1)[C@H](C(=O)O)C(C)C")
110
>>> test_result("CC(=O)Nc1cccc2c1c(Sc1ccc(Cl)cc1)c(C)n2CC(=O)O")
135
>>> test_result("Cc1cccc(NC(=O)CN2CCC(c3ccccn3)CC2)c1.Cl.Cl")
217
>>> test_result("Cc1noc(-c2ccc(-c3ccc(CC(=O)O)cc3)cc2)c1NC(=O)O[C@H](C)c1ccccc1Cl")
122
>>> test_result("CCCCCC(O)/C=C/[C@H]1C(=O)CC(O)C1C/C=C\\CCCC(=O)O (some centres undefined)")
138
>>> test_result("O=C(CCCc1ccccc1)Nc1nc2ccccc2c(=O)s1")
135
>>> test_result("CN[C@@H](C)C(=O)N[C@H](C(=O)N1CCC[C@H]1C(=O)Nc1snnc1-c1ccccc1)C1CCCCC1")
135
>>> test_result("CC[C@@H](C)Nc1nc(C)nc2c(-c3ccc(OC)nc3C)c(C)nn12")
139
